OUTCOME MEASURE: melting point

Example results:
1. Cl.O=c1cc(OCc2ccc(F)cn2)ccn1-c1ccc2sc3c(c2c1)CCCNC3    180 to 182 °C
2. Cl.O=c1cc(OCc2ccc(C(F)(F)F)nc2)ccn1-c1ccc2c3c(oc2c1)CCNC3    278 to 280 °C

Any idea what melting point was measured for Cc1ccc(COc2ccn(-c3ccc4c5c(oc4c3)CCNC5)c(=O)c2)cn1.Cl ?
227 to 233 °C

###

# TARGET ENTITY: human MCH-1 receptor (Homo sapiens, UniProt Q99705)
# Sequence (Q99705 whole entry): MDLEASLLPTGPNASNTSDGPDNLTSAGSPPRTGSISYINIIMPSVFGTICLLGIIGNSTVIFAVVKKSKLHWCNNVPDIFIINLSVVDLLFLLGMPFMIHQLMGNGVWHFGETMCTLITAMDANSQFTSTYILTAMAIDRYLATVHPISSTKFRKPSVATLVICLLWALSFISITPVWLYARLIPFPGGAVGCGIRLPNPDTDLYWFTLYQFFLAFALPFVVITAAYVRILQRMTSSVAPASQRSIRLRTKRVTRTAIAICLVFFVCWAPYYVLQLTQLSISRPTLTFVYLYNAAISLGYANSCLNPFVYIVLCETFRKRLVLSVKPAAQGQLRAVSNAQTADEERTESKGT
Structures can show the parent of a compound that is named as a salt.
OUTCOME MEASURE: Ki (nM)

Example results:
1) O=c1cc(CCc2ccccc2)ccn1-c1ccc2c3c(sc2c1)CNCC3 [Example 127, hydrochloride]    6.2
2) O=C1CN(CCc2ccc(F)cn2)CCN1c1ccc2c3c(oc2c1)CCCNC3 [Example 83, hydrochloride]    52
3) CN1CCc2oc3cc(-n4ccc(OCc5ccccc5)cc4=O)ccc3c2C1 [Example 27, hydrochloride]    8.1
4) O=c1cc(OCc2ccc(F)cn2)ccn1-c1ccc2c3c(oc2c1)CC1CCC3N1 (stereo not drawn) [Example 129, hydrochloride]    14
5) O=c1cc(OCc2ccc(F)cn2)ccn1-c1ccc2c3c(oc2c1)CCCNC3 [Example 37, hydrochloride]    4.5

a = CN1CCCc2oc3cc(-n4ccc(OCc5ccc(C(F)(F)F)nc5)cc4=O)ccc3c2C1 [Example 86, hydrochloride]
b = O=c1cc(OCc2ccc(F)cn2)ccn1-c1ccc2c3c(oc2c1)CCNCC3 [Example 39, hydrochloride]
Lab note: check whether a or b has the lower measured Ki. When you have decided, please share the label of that item.
b
(b: 9 nM, a: 53 nM)

A = O=c1cc(OCc2ccc(F)cn2)ccn1-c1ccc2c3c(oc2c1)CNCC3 [Example 3, hydrochloride]
B = O=c1cc(OCc2cccc(C(F)(F)F)n2)ccn1-c1ccc2c3c(oc2c1)CCCNC3 [Example 43, hydrochloride]
C = O=c1cc(OCc2ccc(F)cn2)ccn1-c1ccc2c3c(sc2c1)CCNC3 [Example 55, hydrochloride]
D = O=c1cc(-c2ccc(C(F)(F)F)nn2)ccn1-c1ccc2c3c(oc2c1)CCCNC3 [Example 106, hydrochloride]
Order the items by recorded Ki; the first position goes to the largest value. Output spec: labels arranged per the requested ranking.
D, A, B, C

I = O=c1cc(OCc2ccc(C(F)(F)F)nc2)ccn1-c1ccc2c3c(sc2c1)CNCC3 [Example 64, hydrochloride]
II = O=c1cc(OCc2cccc(C(F)(F)F)n2)ccn1-c1ccc2c3c(oc2c1)CCNC3 [Example 31, hydrochloride]
Lab note: check whether I or II has the lower measured Ki. When you have decided, please share the label of that item.
II
(II: 23 nM, I: 48 nM)

A = O=C1CN(CCc2ccc(Cl)cn2)CCN1c1ccc2c3c(oc2c1)CCCNC3 [Example 90, hydrochloride]
B = O=c1cc(CCc2ccc(Cl)cn2)ccn1-c1ccc2c3c(oc2c1)CCCNC3 [Example 107, hydrochloride]
C = O=c1cc(OCc2ccc(C(F)(F)F)nc2)ccn1-c1ccc2c3c(oc2c1)CCNCC3 [Example 47, hydrochloride]
D = O=c1cc(OCc2ccc(C(F)(F)F)nc2)ccn1-c1ccc2c3c(oc2c1)CCCNC3 [Example 45, hydrochloride]
E = Cc1ccc(COc2ccn(-c3ccc4c5c(oc4c3)CCNC5)c(=O)c2)cn1.Cl [Example 51, hydrochloride]
Order the items by recorded Ki; the first position goes to the largest value. Output spec: labels arranged per the requested ranking.
E, C, D, A, B
(E: 145 nM, C: 55 nM, D: 29 nM, A: 19 nM, B: 4.2 nM)

Reference source for all entries: patent US20140163012A1
